B1: TPR 5TU (parent)
chain: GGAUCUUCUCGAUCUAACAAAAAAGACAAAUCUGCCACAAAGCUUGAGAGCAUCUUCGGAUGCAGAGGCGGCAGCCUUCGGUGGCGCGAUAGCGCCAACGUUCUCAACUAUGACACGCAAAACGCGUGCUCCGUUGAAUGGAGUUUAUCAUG

variants of: B1; experiment: polymerase ribozyme fitness, log enrichment relative to wild type (log ratio); higher = more active; in vitro selection for triplet polymerase activity
Variants at the floor of the assay were thinned out.
MEASURED ENDPOINT: polymerase ribozyme fitness (log ratio)
Field format: numeric only.

## Task If you can, please state the reported polymerase ribozyme fitness (log ratio) value of C85A G126A .
## Result -1.32

## Task Follow-up item: C35U G136A
## Result 0.0897

## Task Follow-up item: A12U G86A U101G
## Result -0.714

## Task Follow-up item: A52C U101G
## Result -1.56

## Task Follow-up item: A17U C38A U53A G81C C95U U104G
## Result -4

## Task Follow-up item: A3U U31G A40U U53A C85U C95U
## Result -3.06

## Task Follow-up item: C18G U61A
## Result -0.567

## Task Follow-up item: G25C C57U C123A C125G
## Result -2.33

## Task Follow-up item: C38G U56A C93U U104G A122C
## Result -2.96

## Task Follow-up item: G84A A142G
## Result -1.82

## Task Follow-up item: A17G A22G U82C C99A
## Result -2.88

## Task Follow-up item: A37G C54A G141A
## Result -2.78

## Task Follow-up item: A19U A106G G143C
## Result -2.4

## Task Follow-up item: G80A G141A
## Result -0.333

## Task Follow-up item: U56A C57A C85U C87U
## Result -0.523

## Task Follow-up item: A40G U56G C85A A115U U134C
## Result -4.09

## Task Follow-up item: C85A U135C
## Result -2.15

## Task Follow-up item: C87U U109C
## Result -3.46

## Task Follow-up item: `G50C`
## Result -2.52

## Task Follow-up item: C96G C103U
## Result -0.445

## Task Follow-up item: A21U A29U U33G C35U G81U G84A
## Result -4.1

## Task Follow-up item: G117A A142U
## Result -4.13

## Task Follow-up item: A52G G84A G136A
## Result -0.512

## Task Follow-up item: C10U C32G U145C
## Result -4.16

## Task Follow-up item: C93U U101A
## Result -2.19

Where do the numbers come from? From the RNAGym collection of RNA variant scans (doi:10.1073/pnas.2313332121).
